- Assay remarks: in vivo
- Protocol conditions: female, CD-1, mouse, iv
Kindly state MTD at 48 h for each of the entries shown.
Give bare numbers, in mg/kg.

{"Molecule": "NC[C@@H]1CN[C@H](CNC(=O)c2cc3ccc(-c4ccc(F)cc4)cc3[nH]2)C1 [TXA09155]", "Unit abbreviation": "mg/kg", "Experimental result": 30}

Req: Reported MTD at 48 h, molecule NCCC[C@@H](N)CNC(=O)c1cc2ccc(-c3ccc(F)cc3)cc2[nH]1 [TXA01182] : ____
Resp: 12.5

----------
- System: P. aeruginosa
- Assay remarks: MIC potentiation of antimicrobial agents by EPIs;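 also: TXA09155 tested at 6.25 µg/mL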
- Type: cell-based, Pseudomonas aeruginosa
- Protocol conditions: TXA09155 at […]
Kindly state MIC of antibiotic + TXA09155 for each of the entries shown.
One number for each entry, in µg/mL.

The examples below pair each entry with its known result.
{"Compound": "CO/N=C(\\C(=O)N[C@@H]1C(=O)N2C(C(=O)[O-])=C(C[n+]3cccc4c3CCC4)CS[C@H]12)c1csc(N)n1", "MIC of antibiotic + TXA09155, µg/mL": 1}
{"Compound": "C[C@@H](O)[C@H]1C(=O)N2C(C(=O)O)=C(SCCN=CN)C[C@H]12", "MIC of antibiotic + TXA09155, µg/mL": 4}
{"Compound": "CO/N=C(\\C(=O)N[C@@H]1C(=O)N2C(C(=O)[O-])=C(C[N+]3(C)CCCC3)CS[C@H]12)c1csc(N)n1 [Cefepime]", "MIC of antibiotic + TXA09155, µg/mL": 0.5}

Consider now this further compound.
Req: Reported MIC of antibiotic + TXA09155, compound Nc1nc(/C(=N/O)C(=O)N[C@@H]2C(=O)N3C(C(=O)O)=C(/C=C4\CCN([C@@H]5CCNC5)C4=O)CS[C@H]23)ns1 : ____
Resp: 1

----------
- Assay system: CYP1A2 (Homo sapiens, UniProt P05177)
- Construct: from tissue; host or cells: human liver microsomes
- Sequence (P05177 whole entry): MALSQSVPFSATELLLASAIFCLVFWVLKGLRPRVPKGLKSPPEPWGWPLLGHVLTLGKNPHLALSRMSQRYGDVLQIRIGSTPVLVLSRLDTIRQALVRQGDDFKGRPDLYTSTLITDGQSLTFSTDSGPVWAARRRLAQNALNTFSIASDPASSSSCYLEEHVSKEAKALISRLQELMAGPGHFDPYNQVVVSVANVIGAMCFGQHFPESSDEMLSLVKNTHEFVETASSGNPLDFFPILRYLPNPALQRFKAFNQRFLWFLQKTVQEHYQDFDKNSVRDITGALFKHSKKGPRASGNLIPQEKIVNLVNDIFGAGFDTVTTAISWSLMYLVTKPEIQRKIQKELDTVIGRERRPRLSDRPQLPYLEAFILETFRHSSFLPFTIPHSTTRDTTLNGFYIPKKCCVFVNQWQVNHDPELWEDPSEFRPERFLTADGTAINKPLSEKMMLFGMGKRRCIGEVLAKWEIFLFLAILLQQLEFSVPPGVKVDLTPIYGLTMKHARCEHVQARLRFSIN
- Assay remarks: Cytochrome P450 inhibition
- Format: in vitro ADME
- Protocol conditions: probe phenacetin; human liver microsomes; read-out: CYP Inhibition IC50, 1A2
Property: IC50 at 10 min

Req: What reported IC50 at 10 min corresponds to NC[C@@H]1CN[C@H](CNC(=O)c2cc3ccc(-c4ccc(F)cc4)cc3[nH]2)C1 on CYP1A2 (Homo sapiens, UniProt P05177)?
Resp: > 100 µM

----------
- Tested on: P. aeruginosa ATCC 27853
- Assay remarks: MIC and levofloxacin potentiation (broth microdilution)
- Assay type: cell-based, Pseudomonas aeruginosa
- Protocol conditions: Pseudomonas aeruginosa, ATCC27853; EPI alone; ATCC 27853; read-out: EPI MIC
Property: MIC (µg/mL)
Answers are plain numbers, in µg/mL.

{"Compound": "NCC(F)C[C@@H](N)CNC(=O)c1cc2ccc(-c3ccc(F)cc3)cc2[nH]1 (some centres unmarked)", "Assay system": "P. aeruginosa ATCC 27853", "MIC (µg/mL)": 100}

Each of the following entries comes with a recorded value; kindly state MIC for each.
1. NCC(F)(F)C[C@@H](N)CNC(=O)c1cc2ccc(-c3ccc(F)cc3)cc2[nH]1
2. NC[C@@H]1CN[C@H](CNC(=O)c2cc3ccc(-c4ccc(F)cc4)cc3[nH]2)C1
3. NCCC[C@@H](N)CNC(=O)c1cc2ccc(-c3ccc(F)cc3)cc2[nH]1

Resp:
1: 100; 2: 50; 3: 100
